Where these numbers come from: ChEMBL document CHEMBL5131485

- system.tested: Platelet-derived growth factor receptor alpha (Homo sapiens)
- Sequence (P16234 whole entry): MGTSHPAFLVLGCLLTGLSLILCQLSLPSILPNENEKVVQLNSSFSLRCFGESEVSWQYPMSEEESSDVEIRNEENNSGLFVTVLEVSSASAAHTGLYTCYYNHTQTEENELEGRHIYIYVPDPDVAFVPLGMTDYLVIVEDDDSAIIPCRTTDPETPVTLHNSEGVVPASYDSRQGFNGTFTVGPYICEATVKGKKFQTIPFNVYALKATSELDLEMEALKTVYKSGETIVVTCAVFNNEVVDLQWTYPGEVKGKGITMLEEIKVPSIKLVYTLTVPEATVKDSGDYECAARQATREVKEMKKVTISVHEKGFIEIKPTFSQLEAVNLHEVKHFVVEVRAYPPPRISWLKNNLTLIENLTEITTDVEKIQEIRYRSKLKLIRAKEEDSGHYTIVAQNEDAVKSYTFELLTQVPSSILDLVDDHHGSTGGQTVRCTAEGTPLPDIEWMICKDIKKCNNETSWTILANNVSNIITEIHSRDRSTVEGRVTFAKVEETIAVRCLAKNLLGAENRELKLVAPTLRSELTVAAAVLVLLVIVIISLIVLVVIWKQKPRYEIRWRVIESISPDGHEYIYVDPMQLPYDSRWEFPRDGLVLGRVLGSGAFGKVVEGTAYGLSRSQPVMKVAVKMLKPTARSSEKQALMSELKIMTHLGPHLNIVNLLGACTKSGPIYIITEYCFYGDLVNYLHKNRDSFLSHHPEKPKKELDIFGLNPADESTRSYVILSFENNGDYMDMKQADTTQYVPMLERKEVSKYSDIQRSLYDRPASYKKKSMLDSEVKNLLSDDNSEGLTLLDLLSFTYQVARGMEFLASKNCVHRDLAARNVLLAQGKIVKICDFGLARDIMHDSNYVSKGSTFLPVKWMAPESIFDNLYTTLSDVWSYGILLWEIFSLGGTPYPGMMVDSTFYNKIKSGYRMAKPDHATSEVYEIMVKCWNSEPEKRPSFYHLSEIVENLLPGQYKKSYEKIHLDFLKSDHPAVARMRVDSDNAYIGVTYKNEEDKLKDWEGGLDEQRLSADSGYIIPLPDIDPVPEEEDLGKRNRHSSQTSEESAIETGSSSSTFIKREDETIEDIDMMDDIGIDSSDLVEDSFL
Parameter: pIC50. Scope: all listed entries.
The read-out pIC50 is expressed as -log10 of concentration in moles per litre.

# annotated cases, reported pIC50 shown
NCCCNCCCCNc1ccc(Nc2nc(N[C@H]3CC[C@H](N)CC3)nc3c2ncn3C2CCCC2)cc1 : 6.66
NCCCCNC(=O)c1ccc(Nc2nc(N[C@H]3CC[C@H](N)CC3)nc3c2ncn3C2CCCC2)cc1 : 7.44
NCCCCNc1ccc(Nc2nc(N[C@H]3CC[C@H](N)CC3)nc3c2ncn3C2CCCC2)cc1 : 6.82

Shifting focus to the compound that follows.
Challenge: Reported pIC50 for Platelet-derived growth factor receptor alpha (Homo sapiens), given NCCCNCCCCNC(=O)c1ccc(CNc2nc(N[C@H]3CC[C@H](N)CC3)nc3c2ncn3C2CCCC2)cc1 ?
Response given: 4.70

---

pIC50 tested on UniProt P24941: recorded values
Interpret pIC50 as the negative base-10 log of the concentration measured in mol/L.

N[C@H]1CC[C@H](Nc2nc(Nc3ccccc3)c3ncn(C4CCCC4)c3n2)CC1 : 8.15

Moving on to another compound below.
Challenge: Name the recorded pIC50 for NCCCNCCCCNC(=O)c1ccc(Nc2nc(N[C@H]3CC[C@H](N)CC3)nc3c2ncn3C2CCCC2)cc1 .
Response given: 7.72

---

- System: Receptor-type tyrosine-protein kinase FLT3 (Homo sapiens), P36888 [UNDEFINED MUTATION]
- measurement.parameters: MV4-11, dose 5-25 nM, time 1.0 hrs
Calls of active or inactive are those of the source. The calls are words filed in the database; no cut-off is given here.
value.kind: inhibition

N[C@H]1CC[C@H](Nc2nc(Nc3ccccc3)c3ncn(C4CCCC4)c3n2)CC1 : Active
NC(=O)c1ccc(Nc2nc(N[C@H]3CC[C@H](N)CC3)nc3c2ncn3C2CCCC2)cc1 : Active
NCCCCNC(=O)c1ccc(Nc2nc(N[C@H]3CC[C@H](N)CC3)nc3c2ncn3C2CCCC2)cc1 : Active

---

Below are compounds with their pIC50 as measured on Receptor-type tyrosine-protein kinase FLT3 (Homo sapiens, UniProt P36888, ITD).
Sequence (P36888 whole entry, looked up, change not shown): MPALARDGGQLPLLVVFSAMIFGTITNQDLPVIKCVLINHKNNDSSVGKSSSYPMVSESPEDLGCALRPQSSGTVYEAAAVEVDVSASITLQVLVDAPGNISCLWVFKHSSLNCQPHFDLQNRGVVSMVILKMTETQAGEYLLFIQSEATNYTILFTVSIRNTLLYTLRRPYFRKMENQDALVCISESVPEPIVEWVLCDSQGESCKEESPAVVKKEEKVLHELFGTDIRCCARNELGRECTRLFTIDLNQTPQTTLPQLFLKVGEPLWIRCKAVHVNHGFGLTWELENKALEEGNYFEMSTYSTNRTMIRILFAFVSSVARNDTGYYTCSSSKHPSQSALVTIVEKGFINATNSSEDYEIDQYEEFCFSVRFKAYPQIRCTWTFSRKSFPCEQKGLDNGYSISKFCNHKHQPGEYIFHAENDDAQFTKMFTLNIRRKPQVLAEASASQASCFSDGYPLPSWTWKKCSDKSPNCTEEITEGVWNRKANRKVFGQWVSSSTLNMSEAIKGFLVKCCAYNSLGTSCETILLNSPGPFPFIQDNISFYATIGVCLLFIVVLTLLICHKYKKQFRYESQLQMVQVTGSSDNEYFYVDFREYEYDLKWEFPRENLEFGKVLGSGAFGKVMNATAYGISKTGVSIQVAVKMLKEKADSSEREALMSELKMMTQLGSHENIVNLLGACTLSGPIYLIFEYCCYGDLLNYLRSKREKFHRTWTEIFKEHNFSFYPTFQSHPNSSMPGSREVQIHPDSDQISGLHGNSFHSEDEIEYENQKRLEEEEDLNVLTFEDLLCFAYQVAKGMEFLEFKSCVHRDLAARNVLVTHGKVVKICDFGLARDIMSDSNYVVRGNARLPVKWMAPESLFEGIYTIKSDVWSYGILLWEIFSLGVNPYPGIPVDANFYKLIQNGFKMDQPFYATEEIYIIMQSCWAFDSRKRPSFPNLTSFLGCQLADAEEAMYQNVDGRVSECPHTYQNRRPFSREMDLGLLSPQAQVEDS
Recall that pIC50 is obtained by taking minus log10 of the concentration measured in molar.

N[C@H]1CC[C@H](Nc2nc(Nc3ccccc3)c3ncn(C4CCCC4)c3n2)CC1 : 8.30
NCCCNCCCCNC(=O)c1ccc(CNc2nc(N[C@H]3CC[C@H](N)CC3)nc3c2ncn3C2CCCC2)cc1 : 5.88
NCCCCNC(=O)c1ccc(CNc2nc(N[C@H]3CC[C@H](N)CC3)nc3c2ncn3C2CCCC2)cc1 : 5.78
NCCCNCCCCNC(=O)c1ccc(Nc2nc(N[C@H]3CC[C@H](N)CC3)nc3c2ncn3C2CCCC2)cc1 : 8.40

Challenge: Look up pIC50: NCCCCNc1ccc(Nc2nc(N[C@H]3CC[C@H](N)CC3)nc3c2ncn3C2CCCC2)cc1
Response given: 8.40
